# Test system: Lolium rigidum (LOLRI)
# Experimental details: Herbicidal pre-emergence action, LOLRI
# Format: in vivo
# Assay setup: 1280 g/ha, visual grading after ca. 3 weeks vs untreated controls (Table A5)
Endpoint label: herbicidal effect in percent, LOLRI (%)
Enter your answer as a number in %; do not include the unit.

If you can, please state the reported herbicidal effect in percent, LOLRI value of "O=C(Nc1nc(Br)ns1)c1c(C2CC2)ccnc1Cl" . 90

If you can, please state the reported herbicidal effect in percent, LOLRI value of "O=C(Nc1ncns1)c1c(C2CC2)ccnc1F" . 100

If you can, please state the reported herbicidal effect in percent, LOLRI value of "O=C(Nc1ncns1)c1c(C2CC2)ccnc1C(F)(F)F" . 90

If you can, please state the reported herbicidal effect in percent, LOLRI value of "O=C(Nc1nc(Cl)ns1)c1c(C2CC2)ccnc1Cl" . 90

If you can, please state the reported herbicidal effect in percent, LOLRI value of "O=C(Nc1ncns1)c1c(C2CC2)ccnc1Cl" . 90
